Data origin: patent US20210261937

Target: scSUMO-MBP fusion protein
OUTCOME MEASURE: cleavage of the SUMO fusion protein

The protein bdSENP1 from B. distachyon (protein) PFVPLTDEDEDNVRHALGGRKRSETLSVHEASNIVITREILQCLNDKEWLNDEVINLYLELLKERELREPNKFLKCHFFNTFFYKKLINGGYDYKSVRRWTTKRKLGYNLIDCDKIFVPIHKDVHWCLAVINIKEKKFQYLDSLGYMDMKALRILAKYLVDEVKDKSGKQIDVHAWKQEGVQNLPLQENGWDCGMFMLKYIDFYSRDMELVFGQKHMSYFRRRTAKEILDLKAG showed cleavage of the SUMO fusion protein equal to < 50 % cleavage
